Entry source: paper PMC6310869

Tested on: CYP3A4/5
Type: in vitro ADME
particulars: human, pooled human liver microsomes, probe midazolam (1'-hydroxylation)
value_kind: KI (inactivation)
Number first, unit second.

input: # query: KI (inactivation) of entry Cn1c(COP(=O)(NCCBr)NCCBr)cnc1[N+](=O)[O-] [Evofosfamide]
output: 370 µM

---

assay: Clinical pharmacokinetics, phase I study in patients with solid tumors
Type: in vivo
particulars: human, plasma, iv
value_kind: clearance (mL/min)
Express the result in mL/min but write the number alone.

input: Given Cn1c(COP(=O)(NCCBr)NCCBr)cnc1[N+](=O)[O-] [Evofosfamide] , state its recorded clearance.
output: 1060

---

assay: Plasma protein binding in fresh human plasma by ultrafiltration
Format: in vitro ADME
value_kind: fraction unbound at 0.5 h
Output spec: single numeric token, no unit.

input: Which fraction unbound at 0.5 h value belongs to Cn1c(COP(=O)(NCCBr)NCCBr)cnc1[N+](=O)[O-] [Evofosfamide] ?
output: 0.455
